- target_under_test: rat Thyrotropin Releasing Hormone Receptor (TRH), Trhr (gene 25570) (UniProt Q01717)
- Sequence (Q01717 whole entry, looked up): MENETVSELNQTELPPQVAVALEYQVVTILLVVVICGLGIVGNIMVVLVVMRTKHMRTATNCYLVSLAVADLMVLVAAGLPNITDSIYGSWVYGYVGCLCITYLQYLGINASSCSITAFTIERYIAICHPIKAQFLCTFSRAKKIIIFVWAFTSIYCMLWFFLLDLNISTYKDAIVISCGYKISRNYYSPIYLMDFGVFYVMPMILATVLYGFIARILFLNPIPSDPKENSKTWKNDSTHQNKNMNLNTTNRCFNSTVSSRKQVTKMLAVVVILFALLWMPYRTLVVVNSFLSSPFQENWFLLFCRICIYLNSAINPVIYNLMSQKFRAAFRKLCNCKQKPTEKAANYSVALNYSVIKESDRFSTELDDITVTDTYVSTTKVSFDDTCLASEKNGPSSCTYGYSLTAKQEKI
- assay_method_text: NVS_GPCR_rTRH: NovaScreen (NVS) G Protein-Coupled Receptor Assay for rat Thyrotropin Releasing Hormone Receptor (TRH) (AID 2283329);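 also: hit means lower bound tracer signal versus DMSO baseline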
Results filed as inconclusive are left out. The source made the active and inactive calls. The calls were made as follows: active = hit-call score of the fitted dose curve at least 0.9, where 1 is the maximum; inconclusive = response in the unintended direction; inactive = score below 0.9.
Reply using exactly one outcome from true (1) = active, false (0) = inactive

Request: Hey, what did the test say about "O=C(O)c1cccc(C(=O)O)n1" ?
Result: false (0)

* * *

- assay_method_text: ATG_GLI_CIS: Attagene CIS-FACTORIAL HepG2 Assay for human Zinc Finger Protein GLI1 (AID 2282945)
- experimental_context: HepG2, Attagene cis-factorial reporter mRNA, GLI element; actives raise or lower the signal
The source made the active and inactive calls. Rule for the calls: active = hit-call score of the fitted dose curve at least 0.9, where 1 is the maximum; inactive = score below 0.9.
Reply using exactly one outcome from T for active, F for inactive

Solved entries (count: 6):
> print(dat)
                                   molecule  group
1                   CC[N+](CC)(CC)Cc1ccccc1      F
2                   O=C1OC(=O)C(F)(F)C1(F)F      F
3   COCN(COC)c1nc(N(COC)COC)nc(N(COC)COC)n1      F
4                  FC(F)(F)C(F)(F)C(F)(F)Br      F
5  O=C(O)CCC(F)(F)C(F)(F)C(F)(F)C(F)(F)C(F)(F)F      F
6  O=C(NCc1ncc(C(F)(F)F)cc1Cl)c1c(Cl)cccc1Cl      F

Request: Hey, what did the test say about "CCCCCCCCCCCC[N+](C)(C)CCCCCCCCCCCC" ?
Result: F

Request: Hey, what did the test say about "OCC(CO)(CBr)CBr" ?
Result: F

Request: Hey, what did the test say about "CC(C)(c1ccc(Oc2ccc(N)cc2)cc1)c1ccc(Oc2ccc(N)cc2)cc1" ?
Result: F

Request: Hey, what did the test say about "c1cc2cccc3c4cccc5cccc(c(c1)c23)c54" ?
Result: F

Request: Hey, what did the test say about "CCCCCCOC(=O)c1ccc(O)cc1" ?
Result: T

Request: Hey, what did the test say about "C[N+](C)(CCCNS(=O)(=O)CCC(F)(F)C(F)(F)C(F)(F)C(F)(F)C(F)(F)C(F)(F)F)CC(=O)[O-]" ?
Result: F

Request: Hey, what did the test say about "CCOC(=O)CN[C@@H](C(=O)N1CC[C@H]1C(=O)NCc1ccc(/C(N)=N/O)cc1)C1CCCCC1" ?
Result: F

Request: Hey, what did the test say about "C=CCOCC(CO)(CO)CO" ?
Result: F

Request: Hey, what did the test say about "CC(C)C=O" ?
Result: F

* * *

- target_under_test: human Serotonin, 5-Hydroxytryptamine Receptor 5A (5HT5A), HTR5A (gene 3361) (UniProt P47898)
- Sequence (P47898 whole entry, looked up): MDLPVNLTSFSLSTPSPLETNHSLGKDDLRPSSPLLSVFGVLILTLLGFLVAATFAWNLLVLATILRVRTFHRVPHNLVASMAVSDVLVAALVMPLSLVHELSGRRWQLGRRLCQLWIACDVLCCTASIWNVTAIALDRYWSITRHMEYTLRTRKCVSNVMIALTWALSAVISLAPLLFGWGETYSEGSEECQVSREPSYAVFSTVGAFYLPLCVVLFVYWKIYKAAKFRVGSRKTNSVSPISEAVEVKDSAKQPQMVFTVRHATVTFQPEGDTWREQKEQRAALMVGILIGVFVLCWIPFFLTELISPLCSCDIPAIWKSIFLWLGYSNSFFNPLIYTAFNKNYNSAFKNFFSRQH
- assay_method_text: NVS_GPCR_h5HT5A: NovaScreen (NVS) G Protein-Coupled Receptor Assay for human Serotonin, 5-Hydroxytryptamine Receptor 5A (5HT5A) (AID 2283251)
Results filed as inconclusive are left out. Activity calls are given as the source filed them. Rule for the calls: active = hit-call score of the fitted dose curve at least 0.9, where 1 is the maximum; inconclusive = response in the unintended direction; inactive = score below 0.9.
Reply using exactly one outcome from Yes = active, No = inactive

Solved entries (count: 3):
> print(dat)
                               input.smiles  group
1  CCCCc1oc2ccccc2c1C(=O)c1cc(I)c(OCCN(CC)CC)c(I)c1    Yes
2                   CCCCCCCCCCCCOS(=O)(=O)O    Yes
3   N=C(N)c1ccc(OCCCCCOc2ccc(C(=N)N)cc2)cc1     No

Pending molecule:
Request: Hey, what did the test say about "O=C(CCCN1CCC(O)(c2ccc(Cl)cc2)CC1)c1ccc(F)cc1" ?
Result: No

Numbers sourced from PubChem BioAssay (EPA / NIEHS).
